The origin of these recorded values is paper PMC8597757.

# Assay procedure: Single-dose plasma pharmacokinetics of MK-8507 (suspension, study 1; tablet, study 2)
# Assay type: in vivo
# Condition context: human, po, 2 mg, single oral dose 2 mg, suspension, fasted, n=6, read-out: Apparent terminal t½ (geometric mean [%GVC]) (converted)
Measured property: half-life

Mol: N#Cc1cc(Cl)cc(Oc2c(C(F)(F)F)ncn(Cc3cc(C(F)(F)F)c(=O)[nH]n3)c2=O)c1
Measured property: half-life
Result: 82.9 h

---

# Assay procedure: Single-dose plasma pharmacokinetics of MK-8507 (suspension, study 1; tablet, study 2)
# Format: in vivo
# Condition context: human, po, 400 mg, single oral dose 400 mg, tablet, fasted, n=6, read-out: AUC0-∞ (geometric mean [95% CI])
Measured property: AUC(0-inf) (µM·h)

Mol: N#Cc1cc(Cl)cc(Oc2c(C(F)(F)F)ncn(Cc3cc(C(F)(F)F)c(=O)[nH]n3)c2=O)c1
Result number: 710
